# protocol_details: recombinant UMI read abundance after kanamycin selection (control-corrected) (log10(CPM+1)); higher = more efficient recombination; extreme values may be limits of the assay; sequences stand for … in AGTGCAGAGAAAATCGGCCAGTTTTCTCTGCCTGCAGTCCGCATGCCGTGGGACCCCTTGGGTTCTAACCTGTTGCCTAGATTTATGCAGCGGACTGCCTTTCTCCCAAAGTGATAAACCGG…AGGTTGGTTTCACT; site = the 11-nt donor;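 also: IS621 bridge recombinase in Escherichia coli cells against a fixed T5 target plasmid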
measured_metric: recombinant UMI read abundance (log10)
Numbers only.

Below: 4 sequences and their reported recombinant UMI read abundance (log10).
GAGCGTCCATGGACCGGTTTTCCCGGTAATCCGTATTTGGG (site GAGCGTCCTCC)    0.0151
GGCTAGGCATGGACCGGTTTTCCCGGTAATCCGTATTTGGT (site TGCTAGGCTAC)    0.0118
CAGTTAGCATGGACCGGTTTTCCCGGTAATCCGTATTTGTG (site CTGTTAGCTCA)    0.364
CAAGTCACATGGACCGGTTTTCCCGGTAATCCGTATTTGGT (site CAAGTCACTGC)    2.43

Can you give me recombinant UMI read abundance (log10) for all of these, one by one?
1. ATTGTGACATGGACCGGTTTTCCCGGTAATCCGTATTTGGT (site ATTGGGACTAC)
2. CGCTTCTCATGGACCGGTTTTCCCGGTAATCCGTATTTGGG (site CCCTTCTCTCC)
3. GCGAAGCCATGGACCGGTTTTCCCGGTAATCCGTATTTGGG (site GCGAAGCCTAC)
4. CGTTCGACATGGACCGGTTTTCCCGGTAATCCGTATTTGTT (site CGATCGACTAA)
5. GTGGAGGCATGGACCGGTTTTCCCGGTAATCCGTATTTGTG (site ATGGAGGCTCA)

OUT:
1. 0.0143
2. 0.0589
3. 0
4. 0.0104
5. 1.53
